Source of measurements: paper PMC5464773

# TEST_SYSTEM: Myc-tagged Bcl-2 (human, UniProt P10415 1-239)
# Sequence (P10415 1-211): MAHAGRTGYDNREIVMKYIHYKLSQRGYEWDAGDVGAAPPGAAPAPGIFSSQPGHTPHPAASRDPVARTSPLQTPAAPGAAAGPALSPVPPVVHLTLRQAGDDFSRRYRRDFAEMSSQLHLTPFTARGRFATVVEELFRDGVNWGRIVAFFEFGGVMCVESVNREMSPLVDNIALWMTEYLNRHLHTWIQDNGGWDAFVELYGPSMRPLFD
# TEST_NAME: FP
PROPERTY_MEASURED: pKi
One number for each entry, as −log10 of the molar value.

Ac-QWVREIAAGLRRAADDVNAQVER-NH2 (designed binder) [FS2] : 5.62

Give its pKi value. Item: Ac-QWIREIAAGLRRFADILNAQVER-NH2 (designed binder) [FS3]
5.70
